Source listed as PubChem BioAssay (NCI).

Listed here are compounds together with their documented growth.
- Tested on: NCI-H460 lung
- Experiment Description: NCI-60 one-dose screen, 48 h (100 = growth as untreated, 0 = no growth, -100 = all killed)
- Measurement Conditions: 10 µM unless noted
About 83,000 compounds went through this panel and 20% of them were active in at least one assay; those are over-represented in the sample as a whole.
Experimental Readout: growth (%)

- Compound: "O=S(=O)(NCCNc1nccc(-c2c(-c3cccc(F)c3)nc3sccn23)n1)c1ccc(Br)cc1"
  Experimental Readout: "growth"
  Unit Label: "%"
  Reported: 27.8
- Compound: "C=C1C(=O)O[C@H]2[C@H]1CC/C(CNC(=O)/C=C/c1ccccc1)=C\\CC[C@@]1(C)O[C@@H]21"
  Experimental Readout: "growth"
  Unit Label: "%"
  Reported: 39.7
- Compound: "CN1C(=O)NC(c2ccc3c(c2)OCO3)C=C1c1ccccc1 (stereo not given)"
  Experimental Readout: "growth"
  Unit Label: "%"
  Reported: 97.6
- Compound: "O=C(CCN1CCCC1)Nc1ccc2c(Nc3ccc(Br)cc3)c3ccccc3nc2c1"
  Experimental Readout: "growth"
  Unit Label: "%"
  Reported: -69.2
- Compound: "CC1=C(C(=O)/C=C/c2c[nH]c3ccccc23)C(c2ccccc2)NC(=S)N1 (stereo not given)"
  Experimental Readout: "growth"
  Unit Label: "%"
  Reported: 99.6
- Compound: "Oc1c(Cl)cc(Cl)c(Cl)c1CNCCNCc1c(O)c(Cl)cc(Cl)c1Cl"
  Experimental Readout: "growth"
  Unit Label: "%"
  Reported: 13
- Compound: "CCOC(=O)c1cc(C(=O)c2ccc(Br)cc2)n2ccc(/C=C/c3cc[n+](CC(=O)c4ccc(OC)cc4)cc3)cc12"
  Experimental Readout: "growth"
  Unit Label: "%"
  Reported: 96.4
- Compound: "Cc1ccc(/C=N/NC(=O)CSc2nc3ccccc3c(=O)n2Cc2ccc(S(N)(=O)=O)cc2)cc1"
  Experimental Readout: "growth"
  Unit Label: "%"
  Reported: 98.5
- Compound: "O=C(CCN1CCCC1)Nc1ccc2c(NCCCc3ccccc3)c3ccccc3nc2c1"
  Experimental Readout: "growth"
  Unit Label: "%"
  Reported: -72.2
- Compound: "COc1cc(/C=C\\C(=O)O)ccc1OCc1ccccc1"
  Experimental Readout: "growth"
  Unit Label: "%"
  Reported: 105
- Compound: "CCOC(=O)CC1CSC(N/N=C/c2ccc(-n3cccn3)cc2)=N1 (stereo not given)"
  Experimental Readout: "growth"
  Unit Label: "%"
  Reported: 107
- Compound: "N#Cc1c(NC(=O)NCc2ccccc2)sc2c1CCCCC2"
  Experimental Readout: "growth"
  Unit Label: "%"
  Reported: 0.445
- Compound: "O=C1Nc2cc(-c3cccc(O)c3)ccc2/C1=C/c1ccc[nH]1"
  Experimental Readout: "growth"
  Unit Label: "%"
  Reported: 4.52
- Compound: "CC(=O)[C@H]1CCC/C=C/[C@@H]2C[C@H](O)C[C@H]2[C@H](O)/C=C/C(=O)O1"
  Experimental Readout: "growth"
  Unit Label: "%"
  Reported: 6.67
- Compound: "c1ccc2c(-c3c[nH]c4ccccc34)c3c(cc2c1)[nH]c1ccccc13"
  Experimental Readout: "growth"
  Unit Label: "%"
  Reported: 68.9
- Compound: "Cc1ccc(NC(=O)Cc2ccc(/C=C/C(=O)c3ncc[nH]3)cc2)cc1"
  Experimental Readout: "growth"
  Unit Label: "%"
  Reported: 7.31
- Compound: "C/C(=N\\NC(=O)CSc1nc2ccccc2c(=O)n1Cc1ccc(S(N)(=O)=O)cc1)c1ccc(F)cc1"
  Experimental Readout: "growth"
  Unit Label: "%"
  Reported: 103
- Compound: "Cc1ccc(CNc2c3ccccc3nc3cc(NC(=O)CCN4CCCC4)ccc23)cc1"
  Experimental Readout: "growth"
  Unit Label: "%"
  Reported: -64.7
- Compound: "Oc1ccc(C(c2ccc(O)cc2)c2ccc(Br)cn2)cc1"
  Experimental Readout: "growth"
  Unit Label: "%"
  Reported: 107
- Compound: "COc1cc(C2C3=C(COC3=O)N(CCO)c3cc4c(cc32)OCO4)cc(OC)c1OC (stereo not given)"
  Experimental Readout: "growth"
  Unit Label: "%"
  Reported: -54.3
